protocol.notes: Unbound tissue partition coefficient, ratio of drug level in brain to plasma in Wistar Han rat at 1 to 2 mg/kg, iv infused for 10 to 20 hrs by LC-MS/MS analysis
condition.summary: brain/plasma
quantity.kind: Kp uu

smiles.structure	endpoint.result
Cc1ccc(CC(C)(C)NC[C@@H](O)CO[C@H](C)c2ccccc2-c2ccc(C(=O)O)c(C)c2)cc1F	0.0018
Oc1noc2cc(Cl)c(Cl)cc12	1.1
Cc1ccc(NC(=O)N2CCN(Cc3sc4ccccc4c3C)CC2)nc1	2.5
CC(C)C[C@H](Nc1ccc(C(=O)NCCC(=O)O)cn1)c1ccc(-c2ccc(C(F)(F)F)cn2)cc1	0.0042
O=C(O)C(=O)Nc1ccc(NC(=O)[C@H](CC2CCCC2)n2cnc(C(F)(F)F)c2)nc1	0.0018
O=C(O)c1nc2cc(Cl)c(Cl)cc2nc1O	0.0018

====

Examples of compounds with documented Papp follow.
protocol.notes: Apparent permeability of the compound across dog RRCK cells by MDCK-LE assay

compound	unit.of.measurement	Papp
O=C(NC(c1ccccc1)c1ccccc1)C1CC1	×10⁻⁶ cm/s	35
O=C(O)[C@@H]1CCCN(C(=O)n2cnc(-c3ccc(-c4cnc(N5CCOCC5)nc4)cc3)n2)[C@H]1c1ccccc1	×10⁻⁶ cm/s	7.9
CCCC(Oc1ccc(-n2cc3ccccc3n2)cc1)c1ccc(C(=O)NCCC(=O)O)cc1 (stereo unspecified)	×10⁻⁶ cm/s	9.9
CO[C@@H]1C[C@H](C(=O)Nc2ccc(-n3cc(Cl)ccc3=O)cc2F)N(C(=O)Nc2ccc(Cl)cc2)C1	×10⁻⁶ cm/s	21
C[C@H]1c2cccc(CCC(C)(C)O)c2C[C@H](CO)N1C(=O)Cc1c(Cl)cccc1Cl	×10⁻⁶ cm/s	27
Cc1ccc(NC(=O)N2CCN(Cc3sc4ccccc4c3C)CC2)nc1	×10⁻⁶ cm/s	25
COc1ccc(-c2cc3c(C(=O)O)n[nH]c3cc2Cl)cc1	×10⁻⁶ cm/s	8.8
CC1(OC(=O)N2CCC(n3ncc(COc4ccc(C(N)=O)cc4F)c3C#N)CC2)CC1	×10⁻⁶ cm/s	26
O=C(NC1CCCC1)C1CCN(c2nc3cc(Cl)ccc3o2)CC1	×10⁻⁶ cm/s	35
Cn1ncc(-c2ccc(C(=O)N(c3ncccc3Cl)[C@@H]3CCCNC3)cc2)c1C(=O)O	×10⁻⁶ cm/s	0.51
C[C@H](CN1CCOCC1)n1/c(=N\C(N)=O)[nH]c2cc(/C=C3\c4ccccc4COc4cc(F)ccc43)ccc21 [LY2623091]	×10⁻⁶ cm/s	0.1
O=c1[nH]c(=S)n(CCO)c2cc[nH]c12	×10⁻⁶ cm/s	1.7
CC(=O)N1CCN(c2ccc(OCC3COC(Cn4ccnc4)(c4ccc(Cl)cc4Cl)O3)cc2)CC1 (stereo unspecified) [KETOCONAZOLE]	×10⁻⁶ cm/s	4.2
CC(C)n1ncc2c1C(=O)CC1(CCN(C(=O)c3ccc4[nH]nc(C(N)=O)c4c3)CC1)C2	×10⁻⁶ cm/s	3.6
CC(C)(O)CS(=O)(=O)c1ccc2c(c1)nc(C(C)(C)C)n2CC1CCOCC1	×10⁻⁶ cm/s	28
COc1ccc2ncc(F)c([C@@H](O)CC[C@@H]3CCN(CCSc4cccs4)C[C@@H]3C(=O)O)c2c1	×10⁻⁶ cm/s	9.8
CC(C)(CC1Cc2ccccc2C1)NC[C@@H](O)COc1cc(C2CC3CC2C2C(C(=O)O)C32)ccc1C#N (stereo partly specified)	×10⁻⁶ cm/s	5.3
Cn1cnc(-c2ccc(O[C@H]3CCN(C(=O)Cc4ccc(OC(F)(F)F)cc4)C[C@@H]3F)c(C(N)=O)c2)c1	×10⁻⁶ cm/s	14
Cc1ccc(CC(C)(C)NC[C@@H](O)CO[C@H](C)c2ccccc2-c2ccc(C(=O)O)c(C)c2)cc1F	×10⁻⁶ cm/s	4.4
CN(C)C(=O)c1cc(CC(=O)O)ccc1NC(=O)c1ccccc1-c1ccc(C(F)(F)F)cc1	×10⁻⁶ cm/s	1.4
CCCn1cnc(C[C@H](CCCN)C(=O)O)c1 [UK-396,082]	×10⁻⁶ cm/s	0.27
O=C(c1cccc(N2CCNCC2)n1)N1CCC(c2ccccc2F)CC1	×10⁻⁶ cm/s	24
Cn1nc(C(=O)NCCN2CCOCC2)cc1-c1cc2ccccc2[nH]1	×10⁻⁶ cm/s	33
C[C@H]1C[C@H]2CSC(N)=N[C@@]2(c2cc(C#N)ccc2F)CO1	×10⁻⁶ cm/s	29
CN(C)C(=O)C(CCN1CCC(O)(c2ccc(Cl)cc2)CC1)(c1ccccc1)c1ccccc1 [LOPERAMIDE]	×10⁻⁶ cm/s	2.7
COc1cc2c(cc1Cc1ccccc1)C[C@H](N)C(=O)N2OC(=O)N(C)C	×10⁻⁶ cm/s	38
N#Cc1ccc(N2N=C(N3CCC(C(=O)N4CCC(O)CC4)CC3)C[C@H]2C2CCCC2)cc1Cl	×10⁻⁶ cm/s	20
C[C@H]1COCCN1c1nc(-c2cnc(N)nc2)c2c(n1)N([C@@]1(C)CCN(C(=O)C(C)(C)N)C1)CC2	×10⁻⁶ cm/s	5.1
Cc1ccc(NC(=O)c2cc(Oc3ccc(S(C)(=O)=O)cc3)c3c(c2)OC(C)(C)C3)nc1	×10⁻⁶ cm/s	22
Cc1nc2cc(-c3cc(F)cc(C#N)c3)ccc2s1	×10⁻⁶ cm/s	34
CC(=O)NS(=O)(=O)c1ccc(Oc2ccc(F)c(Cl)c2)c(C(F)(F)F)c1	×10⁻⁶ cm/s	35
Cc1c(C(=O)O)cnn1-c1nc(-c2cccc(C(F)(F)F)c2)cs1	×10⁻⁶ cm/s	38
CC(C)C[C@H](Nc1ccc(C(=O)NCCC(=O)O)cn1)c1ccc(-c2ccc(C(F)(F)F)cn2)cc1	×10⁻⁶ cm/s	0.1
Nc1noc2ccc(-c3cc(Cl)ccc3Oc3cc(F)c(S(=O)(=O)Nc4cscn4)cc3F)cc12	×10⁻⁶ cm/s	3.8
O=C(O)[C@@H]1CCN(C(=O)n2cnc(-c3ccc(-c4cnc(N5CCOCC5)nc4)cc3)n2)[C@@H](c2ccccc2)C1	×10⁻⁶ cm/s	17
Oc1noc2cc(Cl)c(Cl)cc12	×10⁻⁶ cm/s	29

====

protocol.notes: Fraction unbound in Wistar Han rat plasma at 2 uM incubated for 6 hrs by equilibrium dialysis method

smiles.structure	fraction unbound at 6 h, 2 µM
COc1cc2c(OC[C@H]3NC(=O)[C@@H]4C[C@]34C)nccc2cc1C(N)=O	0.298
C[C@H]1COCCN1c1nc(-c2cnc(N)nc2)c2c(n1)N([C@@]1(C)CCN(C(=O)C(C)(C)N)C1)CC2	0.438
O=C(c1cccc(N2CCNCC2)n1)N1CCC(c2ccccc2F)CC1	0.0995
O=c1[nH]c(=S)n(CCO)c2cc[nH]c12	0.817
COc1ccc2ncc(F)c([C@@H](O)CC[C@@H]3CCN(CCSc4cccs4)C[C@@H]3C(=O)O)c2c1	0.19

====

protocol.notes: Fraction unbound in Wistar Han rat liver at 2 uM incubated for 6 hrs by equilibrium dialysis method
Threshold check on fraction unbound at 6 h, 2 µM: at or above 0.02 gives t, strictly below gives f.

compound	classification
COc1ccc(-c2cc3c(C(=O)O)n[nH]c3cc2Cl)cc1	f
CC(C)(O)CS(=O)(=O)c1ccc2c(c1)nc(C(C)(C)C)n2CC1CCOCC1	t
CC1(OC(=O)N2CCC(n3ncc(COc4ccc(C(N)=O)cc4F)c3C#N)CC2)CC1	t
COc1ccc(-c2cc3c(S(=O)(=O)O)c[nH]c3cc2Cl)cc1	t
CCCC(Oc1ccc(-n2cc3ccccc3n2)cc1)c1ccc(C(=O)NCCC(=O)O)cc1 (stereo not drawn)	f
Cn1ncc(-c2ccc(C(=O)N(c3ncccc3Cl)[C@@H]3CCCNC3)cc2)c1C(=O)O	t
O=C(O)[C@@H]1CCN(C(=O)n2cnc(-c3ccc(-c4cnc(N5CCOCC5)nc4)cc3)n2)[C@@H](c2ccccc2)C1	f
C[C@H]1C[C@H]2CSC(N)=N[C@@]2(c2cc(C#N)ccc2F)CO1	t
Cc1nc2cc(-c3cc(F)cc(C#N)c3)ccc2s1	f
CCCn1cnc(C[C@H](CCCN)C(=O)O)c1	t
CN(C)C[C@@H](OC(=O)N1Cc2c(NC(=O)C3(C(F)(F)F)CC3)n[nH]c2C1(C)C)c1ccccc1	t
CC(C)n1ncc2c1C(=O)CC1(CCN(C(=O)c3ccc4[nH]nc(C(N)=O)c4c3)CC1)C2	t
CCC[C@H](Oc1cc(C)c(-n2cc(C(F)(F)F)cn2)c(C)c1)c1ccc(C(=O)NCCC(=O)O)cc1	f
Cc1ccc(CC(C)(C)NC[C@@H](O)CO[C@H](C)c2ccccc2-c2ccc(C(=O)O)c(C)c2)cc1F	f
CC(C)(CC1Cc2ccccc2C1)NC[C@@H](O)COc1cc(C2CC3CC2C2C(C(=O)O)C32)ccc1C#N (stereo partly drawn)	f
C[C@H]1COCCN1c1nc(-c2cnc(N)nc2)c2c(n1)N([C@@]1(C)CCN(C(=O)C(C)(C)N)C1)CC2	t
N#Cc1ccc(N2N=C(N3CCC(C(=O)N4CCC(O)CC4)CC3)C[C@H]2C2CCCC2)cc1Cl	f
CC(C)C[C@H](Nc1ccc(C(=O)NCCC(=O)O)cn1)c1ccc(-c2ccc(C(F)(F)F)cn2)cc1	f
